system: P12-Ichikawa; assay: cell viability relative to DMSO control; higher = less cytotoxic; details: RPMI 5 mM glucose + 10% dialyzed FBS; 48 h; 0.19 µM
ASSAY ENDPOINT: cell viability (%)
Kindly provide the numeric value in % only, without the unit symbol.

A selection of reference data follows.
O=C1N\C=N/C2=C1C=N[NH]2; 79.3
CC(C)[N+]1(C)C2CCC1CC(OC(=O)C(CO)c1ccccc1)C2.O.[Br-] (configuration not stated); 112
Cc1c(C(=O)c2cccc3ccccc23)c2cccc3c2n1[C@H](CN1CCOCC1)CO3; 86.9
CN(C)[C@@H](CCOc1cccc2ccccc12)c1ccccc1; 105
Clc1ccccc1C(c1ccccc1)(c1ccccc1)n1ccnc1; 110

For `CCOC(=O)O[C@]1(C(=O)OCCl)CC[C@H]2[C@@H]3CCC4=CC(=O)C=C[C@]4(C)[C@H]3[C@@H](O)C[C@@]21C` on P12-Ichikawa, measured cell viability was 91.1

For `Oc1ccc(-c2ccc(-c3cc(Nc4cccc(CNC5CC5)c4)[nH]n3)cc2)c(O)c1` on P12-Ichikawa, measured cell viability was 112

For CCN(CC)CCCC(C)Nc1nc(C)cc(Nc2ccc3nc(C)cc(N)c3c2)n1 (configuration not stated) on P12-Ichikawa, measured cell viability was 123

For `OCCN(CCO)c1nc(N2CCCCC2)c2nc(N(CCO)CCO)nc(N3CCCCC3)c2n1` on P12-Ichikawa, measured cell viability was 106

For `N#C/C(=C1/Nc2ccccc2S1)c1ccnc(OCc2ccc(CN3CCOCC3)cc2)n1` on P12-Ichikawa, measured cell viability was 104

For CC(S)C(=O)NCC(=O)O (configuration not stated) on P12-Ichikawa, measured cell viability was 112

For COC(=O)Nc1nc2ccc([S+]([O-])c3ccccc3)cc2[nH]1 (configuration not stated) on P12-Ichikawa, measured cell viability was 118

For `O=[S+]([O-])(NCCNC/C=C/c1ccc(Br)cc1)c1cccc2cnccc12` on P12-Ichikawa, measured cell viability was 101

For `COc1cc2ncnc(Nc3cccc(Cl)c3)c2cc1OC` on P12-Ichikawa, measured cell viability was 72.1

For `CCOC(=O)[C@H]1O[C@@H]1C(=O)N[C@@H](CC(C)C)C(=O)NCCC(C)C` on P12-Ichikawa, measured cell viability was 119

For C[N+]1(C)[C@@H]2CC(OC(=O)C(O)(c3cccs3)c3cccs3)C[C@H]1[C@@H]1O[C@@H]12 (some centres not stated) on P12-Ichikawa, measured cell viability was 111

For OC[C@H]1OC(OC2=CC3=C(C(=C2)O)C(=O)\C(=C/O3)C4=CC=C(O)C=C4)[C@H](O)[C@@H](O)[C@@H]1O (some centres not stated) on P12-Ichikawa, measured cell viability was 82.9

====

system: NOMO1; experiment: AUC of viability dose-response curve (% viability x log10 dose units); higher = less sensitive; settings: HPLM + 10% dialyzed FBS; 48 h
ASSAY ENDPOINT: AUC of viability dose-response curve

A selection of reference data follows.
O=C(NCC1CCOCC1)c1cnc(Nc2ccc(Cl)cc2Cl)nc1C(F)(F)F; 439
CCCCCN(CCC12CC3CC(CC(C3)C1)C2)C(=O)NCCCc1ccncc1; 454
O=[S+]([O-])(NCCNC/C=C/c1ccc(Br)cc1)c1cccc2cnccc12; 452
Nc1nc(NCCNc2ncc(-n3ccnc3)c(-c3ccc(Cl)cc3Cl)n2)ccc1[N+](=O)[O-]; 460
NC[C@H]1O[C@H](O[C@H]2[C@H](O)[C@@H](O[C@H]3O[C@H](CO)[C@@H](O)[C@H](N)[C@H]3O)[C@H](N)C[C@@H]2N)[C@H](N)C[C@@H]1O; 467

// AUC of viability dose-response curve value for `C[C@H](NCc1ccc(OCc2cccc(F)c2)cc1)C(N)=O` : 445

// AUC of viability dose-response curve value for `O=C1CCCC(=O)C1C(=O)c1ccc(C(F)(F)F)cc1[N+](=O)[O-]` : 403

// AUC of viability dose-response curve value for `N#Cc1ccnc(N2C(=O)CC[C@H]2C(=O)N(c2cncc(F)c2)[C@H](C(=O)NC2CC(F)(F)C2)c2ccccc2Cl)c1` : 348

====

As shown below, each of these compounds has a reported cell viability value.
test system: SEM cells; assay: cell viability relative to DMSO control; higher = less cytotoxic; details: HPLM + 10% dialyzed FBS; 48 h; 46.1 µM
Kindly provide the numeric value in % only, without the unit symbol.

A selection of reference data follows.
O=[S+]([O-])(NCCNC/C=C/c1ccc(Br)cc1)c1cccc2cnccc12; 48.2
Nc1ccn([C@H]2CS[C@@H](CO)O2)c(=O)n1; 147
C1COC(NC(C2CC2)C2CC2)=N1; 60.1
NNc1nncc2ccccc12; 132
CCOCC(O)COc1ccc(NC(=O)CC[S+](C)C)cc1 (stereo unspecified); 84.8

Now for a further compound.
// cell viability value for `CC(C)(C)OC(=O)Nc1ccc(-c2cc(C(=O)NCCCCCCC(=O)NO)no2)cc1` : 4.02

====

test system: P12-Ichikawa; experiment: cell viability relative to DMSO control; higher = less cytotoxic; conditions: HPLM + 10% dialyzed FBS; 48 h; 0.0632 µM
ASSAY ENDPOINT: cell viability (%)
Kindly provide the numeric value in % only, without the unit symbol.

A selection of reference data follows.
CC(C)(O)C(=O)Nc1ccc([N+](=O)[O-])c(C(F)(F)F)c1; 118
Cc1c(C(=O)c2cccc3ccccc23)c2cccc3c2n1[C@H](CN1CCOCC1)CO3; 89.5
C[N]1N=CC=C1C/2=C(\C)N(C(=O)C(=C2)/C(=O)NCC3=NC=C(C=C3)[S+](C)([O-])=O)C4=CC=CC(=C4)C(F)(F)F; 107

// cell viability value for `COC(=O)[C@H](c1ccccc1Cl)N1CCc2sccc2C1` : 108

====

test system: NOMO1; assay: cell viability relative to DMSO control; higher = less cytotoxic; conditions: HPLM + 10% dialyzed FBS; 48 h; 5.12 µM
ASSAY ENDPOINT: cell viability (%)
Kindly provide the numeric value in % only, without the unit symbol.

A selection of reference data follows.
CN1CCC(CC1)=C2C3=C(C=CC=C3)\C=C/C4=C2C=CC=C4; 121
CN1CCN(CCCN2c3ccccc3Sc3ccc(Cl)cc32)CC1.O=C(O)/C=C\C(=O)O.O=C(O)/C=C\C(=O)O; 42.8
O=C1CCCC(=O)C1C(=O)c1ccc(C(F)(F)F)cc1[N+](=O)[O-]; 113
Clc1ccccc1C(c1ccccc1)(c1ccccc1)n1ccnc1; 108
N=C(N)Nc1ccc(C(=O)Oc2ccc3cc(C(=N)N)ccc3c2)cc1; 81.1

For `COc1cc2ncnc(Nc3cccc(Cl)c3)c2cc1OC` on NOMO1, measured cell viability was 39.2

For `Cc1ccc(/C=N/NC(=O)c2ccccc2Oc2ccccc2)o1` on NOMO1, measured cell viability was 98

For `Cc1cnc(Nc2ccc(N3CCN(C)CC3)cc2)nc1Nc1cccc([S+](=O)([O-])NC(C)(C)C)c1` on NOMO1, measured cell viability was 65.8

====

tested on: NOMO1; test: cell viability relative to DMSO control; higher = less cytotoxic; settings: RPMI 5 mM glucose + 10% dialyzed FBS; 48 h; 0.00702 µM
One threshold, 90%, splits the recorded cell viability values: lower ones are TRUE, equal or higher ones are FALSE.

C=CC(=O)Nc1ccc2ncnc(Nc3ccc(OCc4cccc(F)c4)c(Cl)c3)c2c1; FALSE
C[N]1N=CC=C1C/2=C(\C)N(C(=O)C(=C2)/C(=O)NCC3=NC=C(C=C3)[S+](C)([O-])=O)C4=CC=CC(=C4)C(F)(F)F; FALSE
Cc1cnc(Nc2ccc(N3CCN(C)CC3)cc2)nc1Nc1cccc([S+](=O)([O-])NC(C)(C)C)c1; FALSE

Input: Please state whether cell viability is below 90% for `C1CN\2C[C@@H](\N=C2S1)C3=CC=CC=C3`
Output: TRUE

Input: Please state whether cell viability is below 90% for `Nc1nc(N)c(N=O)c(OCC2CCCCC2)n1`
Output: TRUE

====

system: P12-Ichikawa; assay: cell viability relative to DMSO control; higher = less cytotoxic; conditions: RPMI 5 mM glucose + 10% FBS; 48 h; 46.1 µM
As shown below, each of these compounds has a reported cell viability value.
Kindly provide the numeric value in % only, without the unit symbol.

A selection of reference data follows.
CS[C@H]1SC[C@@H]2C(=O)N(C)[C@H](C(C)C)C(=O)OC[C@H](NC(=O)c3cnc4ccccc4n3)C(=O)N[C@H](C)C(=O)N(C)[C@H]1C(=O)N(C)[C@H](C(C)C)C(=O)OC[C@H](NC(=O)c1cnc3ccccc3n1)C(=O)N[C@H](C)C(=O)N2C; 6.52
Nc1nc(N)c(N=O)c(OCC2CCCCC2)n1; 34.7
C[N]1C=C(C=N1)C2=CC=C3N=CC\4=C(N(C(=O)\C=C4)C5=CC6=C(CCN6C(=O)C=C)C=C5)C3=C2; 5.07
CCN(CC)CCCC(C)Nc1nc(C)cc(Nc2ccc3nc(C)cc(N)c3c2)n1 (stereo not drawn); 112

For `CN(C)[C@@H](CCOc1cccc2ccccc12)c1ccccc1` on P12-Ichikawa, measured cell viability was 73.1

src = the supplement of paper PMC11451515
